The origin of these recorded values is the supplement of paper PMC9170038.

Can you tell me apparent KD of MS2 coat protein for the items I'm about to list?
Test system: MS2 coat protein
Test: apparent KD of MS2 coat protein; designed switch direction (-1 OFF switch, 1 ON switch): 1; higher = weaker reporter binding
Details: input ligand: FMN 200 uM
Report the figure in nM without appending any unit label.

I have this sequence here, AGCUUUUAAUCAGGAUAUGGUCACAUGAGGAUCACCCAUGUAACGAUGAUAUAAUGUGGUCAAGACUAGAAGGGAUUGCUAACA [SameState NG2 #67] (Eterna round: R96, puzzle: Same State NG 2) , and I need its recorded apparent KD of MS2 coat protein.
172

Quick one: apparent KD of MS2 coat protein of UUAUACUAGAGAGGAUAUGCAGAGGAUCACCCUGCAGAAGGCUCAUUAGAGAGGAUAUGCAGAGGAUCACCCUGCAGAAGGCUC [pwkr ssNG DX.21] (Eterna round: R96, puzzle: Same State NG 1) ?
10.7

Fill in the blank: the reported apparent KD of MS2 coat protein of GCUCGGCUGAUGGCCUACAUGAGGAUCACCCAUGUGUGUGGGCAGGAUAUCUAGAUUAAGGAUGUAGAGAAGGGCCUGCCGAGC [SameState NG3 #38] (Eterna round: R96, puzzle: Same State NG 3) is ____.
2620

Report apparent KD of MS2 coat protein for GAGUAGUUGAAAGGAUAUGGAUUGUUAUAGAAUCCAGAAGGUUCUAACAUGAGGAUCACCCAUGUAGGACUAUUCCUGUGUAUC [Parity 79 - Jieux - Same State NG 1] (Eterna round: R96, puzzle: Same State NG 1) please.
10.2

----------
System: MS2 coat protein
Assay: apparent KD of MS2 coat protein, switch OFF state (with FMN for OFF switches, without FMN for ON switches); designed switch direction (-1 OFF switch, 1 ON switch): -1; higher = weaker reporter binding
Conditions: FMN input: 0 or 200 uM; Eterna round: R93 (includes R88 designs)
Readout Type: apparent KD of MS2 coat protein (nM)
Field: numeric (nM). Do not append units.

Which apparent KD of MS2 coat protein is listed for AAUAACCGAGGAUAUACAUGAGGAUCACCCAUGUGAACAUCCACGAAAAGGAUUCUGUGUAGAAGGCGGAAACC [Soquar] ?
13.4

Please report the recorded apparent KD of MS2 coat protein for AAAACUGGAGGAUAUACAUGAGGAUCACCCAUGUGUGGAUGAGCUGUGUCGGCAUCACGUAGAAGGCCACAAAA [Gilly Gone Silly 38 - Jieux - Exclusion 3] .
53.3

Which apparent KD of MS2 coat protein is reported for this sequence? AAAAAACAUGAGGAUCACCCAUGUGAGGAUAUCGAAAAAAAAAUAAAAAUAAAACAUACGAGAAGGCACACCAA [Amethyst 59]
35.7

Which value of apparent KD of MS2 coat protein has been reported for AAAACGCUAGGAUAUACAAAAAAAAAGGGAAAAAAAAAGGGACAUGAGGAUCACCCAUGUAGAAGGAGCAAAAA [Diamond 87] in the records?
108

----------
Tested on: MS2 coat protein
Test: apparent KD of MS2 coat protein; designed switch direction (-1 OFF switch, 1 ON switch): -1; higher = weaker reporter binding
Settings: input ligand: none
Quick rule: apparent KD of MS2 coat protein of at least 20 nM means 1, below that means 0.

For this sequence, is measured apparent KD of MS2 coat protein 20 nM or higher? AGUGUGUGGCAGGAUAUUCUGUUGGUUCGGACAGAAGAAGGGUCUACAUGAGGAUCACCCAUGUAAGCGGUUGA [Ex6 #34] (Eterna round: R97, puzzle: Exclusion 6)
1

I'd appreciate it if you could say whether CAGUACUGAGGAUAUACAUGAGGAUCACCCAUGUGAGAGAUACUAAUGAGGUCGAUUAGUAGAAGGCAGUACUG [Mat X3R4 m4] (Eterna round: R97, puzzle: Exclusion 3) has apparent KD of MS2 coat protein at least equal to 20 nM.
0

hey, is apparent KD of MS2 coat protein for this one >= 20 nM? ACAUGAGGAUCACCCAUGUGAAAAGAAUGGCUGACACAGAGAUAGGAUAUAGGUGCAUAUCUAACCUAGAAGGGUCAUGACUGG [Deportation 77 - Jieux - Exclusion NG 3] (Eterna round: R96, puzzle: Exclusion NG 3)
1

Threshold query (apparent KD of MS2 coat protein >= 20 nM) on UGAGUGCGUGUUAGGAUAUGGUUUGGUAUUUCGGGCUAGAAGGGACAUGAGGAUCACCCAUGUAAUUGGCGGGU [-17.2, -16.9 kcal, 22% A] (Eterna round: R97, puzzle: Brourd's mod of Exclusion 4)
1

Exam item: decide whether the reported apparent KD of MS2 coat protein for UUAACAUGCUGGUGAUCAUACAUGAGGAUCACCCAUGUAACAAGCUUUUUGCUCGUCUUAUAAGAUCACCAGCAUGU [Stov1/9-A1] (Eterna round: R97, puzzle: Sensor, turn-off variant 1) is at least 20 nM.
0

Could you tell me if the measured apparent KD of MS2 coat protein of AUUAAAACGGCAGGAUAUCAGCGACAUGAGGAUCACCCAUGUUAGGGCUGACCCUGGAGUCUGGCUGAGAAGGGCCGACUCUCA [Riququ] (Eterna round: R96, puzzle: Exclusion NG 2) reaches 20 nM or more?
1

For this sequence, is measured apparent KD of MS2 coat protein 20 nM or higher? GCAAGCUUUUCGAUCCUCGACAUGAGGAUCACCCAUGUGCUCGAAUUGUUUAGUACUAUCACGAAAGUGAUAGUACA [Sensor, turn off variant 1 v.3] (Eterna round: R97, puzzle: Sensor, turn-off variant 1)
1

Could you verify whether the entry CUCGUGCAGCAAAGCUGUACGAGUACAUGAGGAUCACCCAUGUAGGAUAUGGUACGCAAAGCGUGCUAGAAGGAUAUGUGAAGG [Mat - Exclusion NG 3 - Mod of JL - D88] (Eterna round: R96, puzzle: Exclusion NG 3) shows apparent KD of MS2 coat protein of no less than 20 nM?
1

Evaluate AUUUUGUGAGGAUAUUAGUUGUAGAAAAUUGUUAGUAUAGCUGAGAAGGCACAUGAGGAUCACCCAUGUAAAUC [JR_Ex4_Sub042] (Eterna round: R97, puzzle: Exclusion 4) : apparent KD of MS2 coat protein at minimum 20 nM?
0

Say whether CGGGUGAACAGAGGAUAUCGUACAUGAGGAUCACCCAUGUAAUAAAUGAGAAUUUCGAAUGUAAUCGAGAAGGCUGGAAAACCC [Ostracism 93 - Jieux - Exclusion NG 2] (Eterna round: R96, puzzle: Exclusion NG 2) shows apparent KD of MS2 coat protein of 20 nM or more.
1

Is the recorded value of apparent KD of MS2 coat protein equal to or greater than 20 nM for this sequence? UGUUGUCGCGCAGGAUAUGGCCAACAGGCCCUAGGAUAUCGGAAACGAGAAGGAGCGCCAACAGGCGAGAAGGGCGGGACAACU [pwkr exNG2 2xF7 2xFMN.18] (Eterna round: R96, puzzle: Exclusion NG 2)
1

Hi, just wondering whether AUAACGAUAGUCAGGAUAUCGGUGGCAUCCGUCACCGAGAAGGGACAUGAGGAUCACCCAUGUUAAGCCUAUGA [Eternabot (L1) Solution 69] (Eterna round: R97, puzzle: Brourd's mod of Exclusion 4) shows apparent KD of MS2 coat protein of 20 nM or higher.
0

Could you tell me if the measured apparent KD of MS2 coat protein of AGUGUGUGGCAGGAUAUUCUAAUCGUGAGUAGGGAAGAAGGGUCUACAUGAGGAUCACCCAUGUAAGCGGUUGA [Ex6 #43] (Eterna round: R97, puzzle: Exclusion 6) reaches 20 nM or more?
1

Reported apparent KD of MS2 coat protein reaches at least 20 nM for GCGCUGCGAGGAUAUACAUGAGGAUCACCCAUGUGUCGGCAGCCAUGUUAGUACAAAUGUAGAAGGCGCGUAAA [EX3 #61] (Eterna round: R97, puzzle: Exclusion 3) ?
0

# bool: apparent KD of MS2 coat protein of GGUCGACAUGAGGAUCACCCAUGUUAGGAUAUUAGCCAAUGGUCUCGUUAUGAGUCAUUAAGAAGGAACAUGCU [Eternabot (L1) Solution 37] (Eterna round: R97, puzzle: Exclusion 1) >= 20 nM
0

Confirm if apparent KD of MS2 coat protein reported for the sequence UUCCUACUUGAGGAUCACCCAAGUCAGGAUAUCCAUAACCGACACUCUUUUCGGAGCGGGAGAAGGGACUUGGC [Arbedi] (Eterna round: R97, puzzle: Exclusion 1) is 20 nM or above.
1

Exam item: decide whether the reported apparent KD of MS2 coat protein for GGCGAGCGAGGAUAUACAGGGUAUCCGACUCGCCGCGGGCGACAUGAGGAUCACCCAUGUAGAAGGCGCACGCG [EX2 A.18] (Eterna round: R97, puzzle: Exclusion 2) is at least 20 nM.
0
